Taken from patent US9556193B2.

Here, each record is paired with measured EC50 data.
assay.system: recombinant human AMPK complex 1 (containing α1β1γ1) (Homo sapiens, UniProt Q13131+Q9Y478)
Construct: made in house; host or cells: Spodoptera frugiperda Sf21 cells, baculovirus, triple infection (one virus per subunit)
Sequence (Q13131 whole entry): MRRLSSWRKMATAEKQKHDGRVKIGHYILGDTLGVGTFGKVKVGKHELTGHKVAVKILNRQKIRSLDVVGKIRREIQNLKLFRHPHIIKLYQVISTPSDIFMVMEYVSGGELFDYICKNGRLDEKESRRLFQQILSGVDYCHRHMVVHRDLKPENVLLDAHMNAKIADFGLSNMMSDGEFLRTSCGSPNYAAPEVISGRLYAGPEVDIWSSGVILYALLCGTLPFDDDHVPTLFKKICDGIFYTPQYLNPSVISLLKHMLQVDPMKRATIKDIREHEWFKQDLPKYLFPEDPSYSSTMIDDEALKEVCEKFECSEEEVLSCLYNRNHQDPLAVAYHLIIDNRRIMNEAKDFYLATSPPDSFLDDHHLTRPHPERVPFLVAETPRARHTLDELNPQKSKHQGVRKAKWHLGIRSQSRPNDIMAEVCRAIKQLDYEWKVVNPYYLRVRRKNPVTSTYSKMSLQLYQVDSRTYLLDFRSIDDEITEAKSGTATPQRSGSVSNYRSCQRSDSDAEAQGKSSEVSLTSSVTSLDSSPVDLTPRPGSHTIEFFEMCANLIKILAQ
Sequence (Q9Y478 whole entry): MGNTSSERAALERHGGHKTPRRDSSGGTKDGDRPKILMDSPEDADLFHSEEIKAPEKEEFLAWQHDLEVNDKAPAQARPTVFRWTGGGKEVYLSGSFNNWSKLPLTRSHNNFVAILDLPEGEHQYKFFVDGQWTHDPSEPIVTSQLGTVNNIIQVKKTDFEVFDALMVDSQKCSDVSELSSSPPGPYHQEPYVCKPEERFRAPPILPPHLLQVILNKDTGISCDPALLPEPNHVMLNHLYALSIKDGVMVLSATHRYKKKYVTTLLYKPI
Sequence (P54619 whole entry partner): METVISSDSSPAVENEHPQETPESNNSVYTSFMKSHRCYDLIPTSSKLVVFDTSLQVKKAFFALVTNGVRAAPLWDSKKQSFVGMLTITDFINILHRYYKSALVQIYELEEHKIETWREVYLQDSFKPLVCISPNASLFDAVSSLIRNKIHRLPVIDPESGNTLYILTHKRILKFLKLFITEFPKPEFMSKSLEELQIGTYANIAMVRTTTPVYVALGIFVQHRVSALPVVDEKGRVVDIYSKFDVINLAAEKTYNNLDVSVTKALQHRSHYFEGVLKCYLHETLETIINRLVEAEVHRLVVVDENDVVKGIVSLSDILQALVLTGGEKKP
assay.info: In vitro AMPK activation assay (AMPKSAMSF), complex 1
Format: biochemical
settings: recombinant human AMPK complex 1 (α1β1γ1); inflection point reflecting 50% of the maximum activation
Just the number in nM, nothing appended.

These solved cases illustrate the format of a correct answer.
# compound, unit.of.measure, EC50
records = [
    ("O=C(c1ccc(-c2ccc(-c3c(F)cc4[nH]c(O[C@H]5COC6C5OC[C@@H]6O)nc4c3F)cc2)cc1)N1CC[C@@H](O)C1 (stereo partly drawn)", "nM", 35),
    ("OCc1ccc(-c2ccc(-c3c(F)cc4[nH]c(O[C@H]5COC6C5OC[C@@H]6O)nc4c3F)cc2)cc1 (stereo partly drawn)", "nM", 6),
    ("O[C@@H]1CO[C@H]2[C@@H]1OC[C@H]2Oc1nc2c(F)c(-c3ccc(-c4ccccc4)cc3)c(F)cc2[nH]1", "nM", 51),
    ("CC(C)(O)c1ccc(-c2ccc(-c3c(F)cc4[nH]c(O[C@@H]5CO[C@H]6[C@@H]5OC[C@H]6O)nc4c3F)cc2)cc1", "nM", 18),
    ("CS(=O)(=O)c1ccc(-c2ccc(-c3cc4nc(O[C@@H]5CO[C@H]6[C@@H]5OC[C@H]6O)[nH]c4cc3Cl)cc2)cc1", "nM", 14),
]

Challenge: Sample O[C@@H]1CO[C@H]2[C@@H]1OC[C@H]2Oc1nc2cc(-c3ccc(-c4ccccc4)cc3)c(Cl)cc2[nH]1 — what was its EC50?
Response given: 32
